Assay: physchem
Assay type: physicochemical
Settings: Table S2; parameters of Eq. 1
measure_name: logkw of standards
Answer with a bare number; do not write a unit.

compound	logkw of standards
c1ccccc1 [benzene, reference compound]	2.2458
CCc1ccccc1 [ethylbenzene, reference compound]	3.4018
Oc1ccc2ccccc2n1 [2-hydroxyquinoline, reference compound]	1.4879
Brc1ccccc1 [bromobenzene, reference compound]	3.0842
c1ccc2ccccc2c1 [naphtalene, reference compound]	3.5779

Consider the additional compound presented here.
Lab note: Nc1ccccc1 [aniline, reference compound] gave logkw of standards of 1.1365

----------
Test: physchem
Assay type: physicochemical
Details: Table 1; slope of logk vs. methanol concentration (Eq. 1)
Method: Methanolic solutions (5 μL, 0.1%) of selected samples were applied to the chromatographic column (RP-18 Waters Symmetry, 15 cm length, 4.6 mm i.d., 5 μm particle size) by use of an autosampler Hitachi L-2200 (LaChrom Elite, Hitachi-Merck, Darmstadt, Germany). […] Chromatograms were detected at 254 nm and the temperature of the column was 25 °C. […] Dead time was measured by use of uracil (Calbiochem. Merck, Darmstadt, Germany). […]
Listing: −S of selected molecules
Provide a numeric answer; units are not to be included.

O=C(NNC(=S)NC1CCCCC1)c1ccccc1O 4.7076
O=C(NNC(=S)Nc1ccc(Cl)cc1)c1ccccc1O 4.8778

Please fill in: −S reported for Cc1occc1C(=O)NNC(=S)NC(=O)c1ccccc1 = 4.3720

The molecule identified as O=C(NNC(=S)NC(=O)c1ccccc1Cl)c1ccccc1O registered its −S at 6.1166

----------
Assay: physchem
Type: physicochemical
Details: Table 1; slope of logk vs. methanol concentration (Eq. 1)
Experimental: Methanolic solutions (5 μL, 0.1%) of selected samples were applied to the chromatographic column (RP-18 Waters Symmetry, 15 cm length, 4.6 mm i.d., 5 μm particle size) by use of an autosampler Hitachi L-2200 (LaChrom Elite, Hitachi-Merck, Darmstadt, Germany). […] Chromatograms were detected at 254 nm and the temperature of the column was 25 °C. […] Dead time was measured by use of uracil (Calbiochem. Merck, Darmstadt, Germany). […]
measure_name: −S
Returns: the value as a bare number; no unit string appended.

−S measured on O=C(NNC(=S)Nc1ccccc1)c1ccccc1O [Compound 12] = 4.1962

----------
The following compounds are shown together with reported chromatographic logP values.
Assay: physchem
Type: physicochemical
Conditions: from logkw by calibration curve with seven OECD standards (Eq. 3); read-out: logPHPLC

Solved cases below.
COc1cccc(C(=O)NNC(=S)NC(=O)c2cccc(C)c2)c1 3.89
COc1cccc(C(=O)NNC(=S)NC(=O)c2ccccc2C)c1 3.53
O=C(NNC(=S)Nc1ccccc1)c1cccc(O)c1 2.05
O=C(NNC(=S)NC1CCCCC1)c1ccccc1O 3.3

chromatographic logP measured on O=C(NNC(=S)NC1CCCCC1)c1cccc(O)c1 = 2.79

Looking up COc1cccc(C(=O)NNC(=S)NC(=O)c2ccccc2Cl)c1 , I see its chromatographic logP listed as 3.93

Lookup result for COc1cccc(C(=O)NNC(=S)NC(=O)c2ccc(Cl)cc2)c1 ; measured chromatographic logP: 4.05

Entry O=C(NC(=S)NNC(=O)c1ccc[nH]1)c1ccccc1 , chromatographic logP reported as 2.53

Form: compound = COc1cccc(C(=O)NNC(=S)NC(=O)c2ccccc2)c1 ; chromatographic logP = 3.38

The compound identified as COc1cccc(C(=O)NNC(=S)NC(=O)c2cccc(Cl)c2)c1 registered its chromatographic logP at 3.84

Summary for this compound, O=C(NNC(=S)Nc1ccccc1)c1ccccc1O : chromatographic logP is 2.49

Record summary for O=C(NNC(=S)NC(=O)c1ccccc1Cl)c1ccccc1O : reported chromatographic logP = 4.36

// recorded chromatographic logP for Cc1ccc(NC(=S)NNC(=O)c2ccccc2O)cc1Cl : 4.06

O=C(NNC(=S)Nc1ccc(Cl)c(Cl)c1)c1ccccc1O yielded chromatographic logP of 4.27

compound O=C(CS(=O)(=O)c1ccccc1)NNC(=S)NC(=O)c1ccccc1Cl , chromatographic logP observed: 3.31

Reported chromatographic logP for Cc1occc1C(=O)NNC(=S)NC(=O)c1ccccc1 was 3.05

----------
Assay: physchem
Type: physicochemical
Details: Table 1; retention factor extrapolated to pure water (Eq. 1), methanol 45–75%, RP-18, 25 °C
measure_name: logkw

O=C(NNC(=S)Nc1ccccc1)c1ccccc1O 2.4813

So, COc1cccc(C(=O)NNC(=S)NC(=O)c2cccc(C)c2)c1 ? Its logkw was 3.7864

For record COc1cccc(C(=O)NNC(=S)NC(=O)c2ccc(Cl)cc2)c1 the listed logkw is 3.9422

----------
Item-by-item account of −S
Experiment: physchem
Assay type: physicochemical
Details: Table 1; slope of logk vs. methanol concentration (Eq. 1)
No unit in the answer, only the number.

Some solved entries appear below for comparison.
COc1cccc(C(=O)NNC(=S)NC(=O)c2ccc(Cl)cc2)c1 5.3417
O=C(NNC(=S)Nc1ccc(Cl)c(Cl)c1)c1ccccc1O 5.6538
COc1cccc(C(=O)NNC(=S)NC(=O)c2ccccc2C)c1 4.8562
COc1cccc(C(=O)NNC(=S)NC(=O)c2ccccc2Cl)c1 5.6579
O=C(NNC(=S)Nc1ccccc1)c1cccc(O)c1 4.1968

Reported −S for O=C(NNC(=S)NC1CCCCC1)c1cccc(O)c1 was 4.3297

----------
Recorded −S for the following compounds
Assay: physchem
Format: physicochemical
Settings: Table 1; slope of logk vs. methanol concentration (Eq. 1)
// return just the number, without any unit appended

See these solved cases before continuing.
COc1cccc(C(=O)NNC(=S)NC(=O)c2cccc(C)c2)c1 5.1137
O=C(NC(=S)NNC(=O)c1ccc[nH]1)c1ccccc1 4.1416
Cc1ccc(NC(=S)NNC(=O)c2ccccc2O)cc1Cl 5.5432
O=C(CS(=O)(=O)c1ccccc1)NNC(=S)NC(=O)c1ccccc1Cl 5.7291
COc1cccc(C(=O)NNC(=S)NC(=O)c2cccc(Cl)c2)c1 5.0742

Short answer for COc1cccc(C(=O)NNC(=S)NC(=O)c2ccccc2)c1 : −S was 4.8205

----------
logkw reference
Assay: physchem
Type: physicochemical
Conditions: Table 1; retention factor extrapolated to pure water (Eq. 1), methanol 45–75%, RP-18, 25 °C
I only need the number, thanks.

# annotated cases, reported logkw shown
O=C(NNC(=S)NC1CCCCC1)c1ccccc1O 3.2386
O=C(NNC(=S)NC1CCCCC1)c1cccc(O)c1 2.7583
COc1cccc(C(=O)NNC(=S)NC(=O)c2ccccc2C)c1 3.4487

Kindly consider the entry below.
What the record says about O=C(NNC(=S)Nc1ccc(Cl)c(Cl)c1)c1ccccc1O : logkw is 4.1453
